# Target Of Assay: T1, M11
# T1 construct: also called PD1 mutant M11
# Assay Procedure: scFv-phage ELISA
Exercise: state measured OD490 for each of the binders provided.

Inquiry: May I ask what OD490 has been recorded for PD1-42G4 (antibody, V domains shown, scFv-phage in the screening ELISA; later whole IgG) VH: QVQLVESGGGLVKPGGSLRLSCAASGFTFSDYYMSWIRQAPGKGLEWVSDISASGNSIYYADSVKRRFTISRDNSKNSLYLQMNSLRAEDTAVYYCVTSGPFGEFRNWGLGTLVTVSS VL: DIQMTQSPSSLSASVGDRVTTTCRASQGISSYLAWYQQKPGKAPKLLIYAASTLQSGVPSRFSGSGSGTDFTLTISSLQPEDFATYFCQQSYTSPRTFGQGTKLDIK ?
Reply text: 1.7

Inquiry: Also, PD1-29H3 (antibody, V domains shown, scFv-phage in the screening ELISA; later whole IgG) VH: QMQLVESGGNLVQPGRSLRLSCAASGFTFDDYGMHWVRQAPGKGLEWVSSISWNSGTIGYADSVKGRFTISRDNAKNSLYLQMNSLRSEDTAVYYCARLLHQMNEHEFMDVWGQGTTVTVSS VL: QLVLTQPSSMSEAPGQRVTISCSGGTSNIGTNAVNWYQQPPGKAPTLLIYYDDRLTSGVSDRFSGSKSGTSASLAISRLQSEDEADYYCAAWDDSLNGWVFGGGTKLTVL please.
Reply text: 1

Source of measurements: patent US20190248900A1
